Listing of recorded No. filled seeds/3 panicles by entry.
Tested on: transgenic rice Line 26
assay-info: Response of rice plants to various herbicides, seed set in greenhouse
Format: in vivo
condition-context: post-emergence, 1× rate, 1× g ai/ha: PURSUIT 62.5, CADRE 32, ARSENAL 24, RAPTOR 32, SCEPTER 125, ACCENT 35, CLASSIC 5, AC322,140 20, LONDAX 68

compound: CCOC(=O)c1ccccc1S(=O)(=O)NC(=O)Nc1nc(Cl)cc(OC)n1
target-under-test: transgenic rice Line 26
No. filled seeds/3 panicles: 95
--
compound: Cc1cnc(C2=NC(=O)C(C)(C(C)C)N2)c(C(=O)O)c1 (stereo not drawn)
target-under-test: transgenic rice Line 26
No. filled seeds/3 panicles: 133
--
compound: CC(C)C1(C)N=C(c2nc3ccccc3cc2C(=O)O)NC1=O (stereo not drawn)
target-under-test: transgenic rice Line 26
No. filled seeds/3 panicles: 148
--
compound: COc1cc(OC)nc(NC(=O)NS(=O)(=O)Nc2ccccc2C(=O)C2CC2)n1
target-under-test: transgenic rice Line 26
No. filled seeds/3 panicles: 144
--
compound: COc1cc(OC)nc(NC(=O)NS(=O)(=O)c2ncccc2C(=O)N(C)C)n1
target-under-test: transgenic rice Line 26
No. filled seeds/3 panicles: 82
--
compound: COCc1cnc(C2=NC(C)(C(C)C)C(=O)N2)c(C(=O)O)c1 (stereo not drawn)
target-under-test: transgenic rice Line 26
No. filled seeds/3 panicles: 156
--
compound: CC(C)C1(C)N=C(c2ncccc2C(=O)O)NC1=O (stereo not drawn)
target-under-test: transgenic rice Line 26
No. filled seeds/3 panicles: 156
--
compound: CCc1cnc(C2=NC(C)(C(C)C)C(=O)N2)c(C(=O)O)c1 (stereo not drawn)
target-under-test: transgenic rice Line 26
No. filled seeds/3 panicles: 143
--
compound: COC(=O)c1ccccc1CS(=O)(=O)NC(=O)Nc1nc(OC)cc(OC)n1
target-under-test: transgenic rice Line 26
No. filled seeds/3 panicles: 140

###

Tested on: untransformed Nt rice plants
assay-info: Response of rice plants to various herbicides, seed set in greenhouse
Assay type: in vivo
condition-context: post-emergence, 6× rate, 1× g ai/ha: PURSUIT 62.5, CADRE 32, ARSENAL 24, RAPTOR 32, SCEPTER 125, ACCENT 35, CLASSIC 5, AC322,140 20, LONDAX 68
Method: A total of 9 herbicides, 5 imidazolinones, two rice herbicides and ACCENT® (nicosulfuron) and CLASSIC® (clorimuron-ethyl) were applied in this study. […] For simplicity and convenience, the lowest concentration used is referred as 1× rate, 2, 4 and 6× rates can be calculated as multiples of 1×. To monitor plant response to various herbicides, data on fresh weight was collected. […] Mean fresh weight for each treatment was calculated over three replications. […]
# maps each entry to its % seed-set

compound: CC(C)C1(C)N=C(c2nc3ccccc3cc2C(=O)O)NC1=O (centres unmarked) [SCEPTER ®, imazaquin]
% seed-set: 0%
--
compound: COC(=O)c1ccccc1CS(=O)(=O)NC(=O)Nc1nc(OC)cc(OC)n1 [LONDAX ®, bensulfuron-methyl]
% seed-set: 96%
--
compound: CC(C)C1(C)N=C(c2ncccc2C(=O)O)NC1=O (centres unmarked) [ARSENAL ®, imazapyr]
% seed-set: 0%
--
compound: COc1cc(OC)nc(NC(=O)NS(=O)(=O)Nc2ccccc2C(=O)C2CC2)n1 [AC 322,140, cyclosulfamuron]
% seed-set: 98%
--
compound: CCOC(=O)c1ccccc1S(=O)(=O)NC(=O)Nc1nc(Cl)cc(OC)n1 [CLASSIC ®, chlorimuron-ethyl]
% seed-set: 0%

Entry source: patent US6653529B2
